# Tested on: HaCat
# Protocol summary: Cytotoxic Profiling of Annotated Libraries Using Quantitative High-Throughput Screening (AID 1296008); note: % is set by controls: 0 for no effect and ±100 for the full control effect; nearly all actives have a fitted effect of over 60% in size
# Experimental context: Five cell lines viability, CellTiter-Glo ATP luminescence, 48-72 h; active compounds read low
Results filed as inconclusive are left out. Active and inactive are the calls of the source. Calls come from the whole dose curve; as a rule, active = well fitted inhibition curve with a large enough effect; inconclusive = small, poorly fitted or top-dose-only effect; inactive = flat fitted curve, though single readings scatter.
As shown below, each of these compounds has a reported max response value.

Reference set (2 entries):
- Compound: "CN[C@H](CC(C)C)C(=O)N[C@H]1C(=O)N[C@@H](CC(N)=O)C(=O)N[C@H]2C(=O)N[C@H]3C(=O)N[C@H](C(=O)N[C@H](C(=O)O)c4cc(O)cc(O)c4-c4cc3ccc4O)[C@H](O[C@H]3C[C@](C)(N)[C@@H](O)[C@H](C)O3)c3ccc(c(Cl)c3)Oc3cc2cc(c3O[C@@H]2O[C@H](CO)[C@@H](O)[C@H](O)[C@H]2O[C@H]2C[C@](C)(NCc3ccc(-c4ccc(Cl)cc4)cc3)[C@@H](O)[C@H](C)O2)Oc2ccc(cc2Cl)[C@H]1O"
  max response: "-0.936% (inactive)"
- Compound: "C=C1C(=O)OC2C1CCC(=C)C1CC(OC(C)=O)C(=C)C12 (centres undefined)"
  max response: "-12% (inactive)"

Item C[C@@H]1O[C@@H](O[C@@H]2CO[C@@H](O[C@H]3CC[C@@]4(C)C(CC[C@]5(C)C4CC=C4[C@@H]6CC(C)(C)CC[C@]6(C(=O)O[C@@H]6O[C@H](CO)[C@@H](O)[C@H](O)[C@H]6O)CC[C@]45C)[C@]3(C)CO)[C@H](O)[C@H]2O[C@@H]2O[C@H](CO)[C@@H](O)[C@H](O)[C@H]2O)[C@H](O)[C@H](O)[C@H]1O (some centres undefined) has what recorded max response?
-0.513% (inactive)

Item CC(=O)OC1C(c2ccccc2)CCC(c2ccccc2)C1OC(C)=O (centres undefined) has what recorded max response?
3.27% (inactive)

====

# Test system: Zika virus NS2B-NS3 protease (unlinked complex)
# Protocol summary: Primary screen GU Rhodamine qHTS for Zika virus inhibitors: Unlinked NS2B-NS3 protease assay (AID 1347159); note: % is set by controls: 0 for no effect and ±100 for the full control effect; nearly all actives have a fitted effect of over 60% in size
# Experimental context: Recombinant ZIKV NS2B-NS3 protease, Rhodamine110 substrate fluorescence; series mostly up to 107 µM
Inconclusive results are not listed. The source made the active and inactive calls. The call rests on the fitted dose curve; in most records, active means well fitted inhibition curve with a large enough effect; inconclusive means small, poorly fitted or top-dose-only effect; inactive means no such curve, though single readings can be large or run the other way.
Observation type: outcome

Reference set (7 entries):
- Molecule: "CC(=O)c1cc2c(cc1O)OC(C)(C)C=C2"
  Assayed target: "Zika virus NS2B-NS3 protease (unlinked complex)"
  Observation type: "outcome"
  Test value: "inactive"
- Molecule: "CC1(C)CCC2(C(=O)OC3OC(CO)C(O)C(O)C3O)CCC3(C)C(=CCC4C5(C)CCC(OC6OC(C(=O)O)C(OC7OC(CO)C(O)C(O)C7O)C(OC7OC(CO)C(O)C(O)C7O)C6O)C(C)(C)C5CCC43C)C2C1 (stereo not drawn)"
  Assayed target: "Zika virus NS2B-NS3 protease (unlinked complex)"
  Observation type: "outcome"
  Test value: "inactive"
- Molecule: "C[C@@H]([C@@H](O)c1ccc(O)cc1)N1CCC(O)(c2ccccc2)CC1"
  Assayed target: "Zika virus NS2B-NS3 protease (unlinked complex)"
  Observation type: "outcome"
  Test value: "inactive"
- Molecule: "C=C(C)C1CC[C@]2(C(=O)O)CC[C@]3(C(=O)O)[C@H](CCC4[C@@]5(C)CC[C@H](O)C(C)(C)C5CC[C@]43C)C12 (stereo partly drawn)"
  Assayed target: "Zika virus NS2B-NS3 protease (unlinked complex)"
  Observation type: "outcome"
  Test value: "inactive"
- Molecule: "CCC(Nc1ncnc2nc[nH]c12)c1nc2cccc(F)c2c(=O)n1-c1ccccc1 (stereo not drawn)"
  Assayed target: "Zika virus NS2B-NS3 protease (unlinked complex)"
  Observation type: "outcome"
  Test value: "inactive"
- Molecule: "C[C@H]1[C@H](O)O[C@@H]2O[C@@]3(C)CC[C@H]4[C@H](C)CC[C@@H]1[C@@]24OO3"
  Assayed target: "Zika virus NS2B-NS3 protease (unlinked complex)"
  Observation type: "outcome"
  Test value: "inactive"
- Molecule: "CC(C)CCC(=O)CC1c2ccccc2C(=O)N1c1ccc2ccc(Cl)nc2n1 (stereo not drawn)"
  Assayed target: "Zika virus NS2B-NS3 protease (unlinked complex)"
  Observation type: "outcome"
  Test value: "inactive"

Item CC(O)CO[C@@H]1O[C@H](CO)[C@@H](O)[C@H](O)[C@H]1O (stereo partly drawn) has what recorded outcome?
inactive
